# tested system: T1, murine GPC3-His protein (murine, UniProt Q8CFZ4 25-558, limits assumed)
# T1 construct: bought protein; also called murine GPC3 protein
# T1 sequence (Q8CFZ4 25-558 limits assumed): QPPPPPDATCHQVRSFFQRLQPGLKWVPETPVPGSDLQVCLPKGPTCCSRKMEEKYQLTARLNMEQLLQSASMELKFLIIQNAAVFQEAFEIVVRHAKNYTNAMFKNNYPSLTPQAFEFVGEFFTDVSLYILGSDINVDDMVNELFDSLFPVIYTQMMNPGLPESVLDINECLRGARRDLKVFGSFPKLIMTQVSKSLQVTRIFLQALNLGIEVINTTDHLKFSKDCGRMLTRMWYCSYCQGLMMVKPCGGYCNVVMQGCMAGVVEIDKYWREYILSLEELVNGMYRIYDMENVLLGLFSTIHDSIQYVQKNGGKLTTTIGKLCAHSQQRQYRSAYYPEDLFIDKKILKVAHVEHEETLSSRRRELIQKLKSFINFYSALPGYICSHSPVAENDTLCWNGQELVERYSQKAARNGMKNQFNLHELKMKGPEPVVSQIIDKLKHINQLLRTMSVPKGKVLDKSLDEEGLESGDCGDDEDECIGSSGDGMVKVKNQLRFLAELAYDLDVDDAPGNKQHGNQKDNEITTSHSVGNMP
# measurement protocol: SPR, antibody captured on Protein A chip, murine GPC3-His injected
parameter measured: kon (M⁻¹ s⁻¹)

INSERT INTO measurements (binder, parameter_measured, value_measured) VALUES
  ('F1.145.22 (antibody, human IgG1, kappa, V domains shown, human-murine chimeric antibody) VH: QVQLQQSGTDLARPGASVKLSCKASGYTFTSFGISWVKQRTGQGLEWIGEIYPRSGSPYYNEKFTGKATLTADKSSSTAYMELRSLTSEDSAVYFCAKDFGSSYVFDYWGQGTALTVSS VL: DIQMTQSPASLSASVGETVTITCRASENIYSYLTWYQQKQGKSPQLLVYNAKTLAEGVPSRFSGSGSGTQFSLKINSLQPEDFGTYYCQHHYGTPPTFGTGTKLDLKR', 'kon', 251000);
